Experiment: Plasma half life in rat serum
Type: ADME, organism-based
Numbered stars: 1 amine (or outer) side, 2 acyl side, 3 side chain; on linkers, the order of the positions; unused ones are H or OH. Square brackets hold non-standard residues; d marks the D form. Peptide text beside a SMILES is read from it. X9 = NC1=NCCN1CCC[C@H](N[*:1])C(=O)[*:2]; Tle = CC(C)(C)[C@H](N)C(=O)O; hLys = NCCCCC[C@H](N)C(=O)O
# binarize half-life: threshold 2 h inclusive, high side Condition met, low side Condition not met

Would you please look over these solved cases?
[
  {
    "compound": "CC[C@H](C)[C@H](NC(=O)[C@H](Cc1ccc(O)cc1)NC(=O)[C@@H]1CCCN1C(=O)[C@@H](N)CCCN=C(N)NC(=O)[C@@H](N)CCCCN)C(=O)N[C@@H](CC(C)C)C(=O)O",
    "group-label": "Condition met"
  },
  {
    "compound": "CC[C@H](C)[C@H](NC(=O)[C@H](Cc1ccc(O)cc1)NC(=O)[C@@H]1CCCN1C(=O)[C@@H](N)CCC/N=C(/N)NC(=O)[C@@H](N)CCCCN(C)C)C(=O)N[C@@H](CC(C)C)C(=O)O",
    "group-label": "Condition met"
  },
  {
    "compound": "CC(C)C[C@H](NC(=O)[C@@H](NC(=O)[C@H](Cc1ccc(O)cc1)NC(=O)[C@@H]1CCCN1C(=O)[C@H](CCCNC(=N)N)NC(=O)[C@@H](N)CCCCCN)C(C)(C)C)C(=O)O (H-[hLys]RPY[Tle]L-OH)",
    "group-label": "Condition met"
  },
  {
    "compound": "CC[C@H](C)[C@H](NC(=O)[C@H](Cc1ccc(O)cc1)NC(=O)[C@@H]1CCCN1C(=O)[C@@H](N)CCC/N=C(/N)NC(=O)[C@@H](N)CCCCCNC)C(=O)N[C@@H](CC(C)C)C(=O)O",
    "group-label": "Condition met"
  },
  {
    "compound": "CC[C@H](C)[C@H](NC(=O)[C@H](Cc1ccc(O)cc1)NC(=O)[C@@H]1CCCN1C(=O)[C@@H](N)CCC/N=C(/N)NC(=O)[C@@H](N)CCCN=C(N)N)C(=O)N[C@@H](CC(C)C)C(=O)O",
    "group-label": "Condition met"
  },
  {
    "compound": "CC[C@H](C)[C@H](NC(=O)[C@H](Cc1ccc(O)cc1)NC(=O)[C@@H]1CCCN1C(=O)[C@H](CCCNC(=N)N)NC(=O)[C@@H](N)CCCNC(=N)N)C(=O)N[C@@H](CC(C)C)C(=O)O",
    "group-label": "Condition not met"
  }
]

*Q* Evaluate CC[C@H](C)[C@H](NC(=O)[C@H](Cc1ccc(O)cc1)NC(=O)[C@@H]1CCCN1C(=O)[C@@H](N)CCC/N=C(/N)NC(=O)[C@@H](N)CCCCNC)C(=O)N[C@@H](CC(C)C)C(=O)O : half-life at minimum 2 h?
*A* Condition met

*Q* What about this compound? CC[C@H](C)[C@H](NC(=O)[C@H](Cc1ccc(O)cc1)NC(=O)[C@@H]1CCCN1C(=O)[C@@H](N)CCCNC(=N)NC(=O)[C@@H](N)CCCCC[N+](C)(C)C)C(=O)N[C@@H](CC(C)C)C(=O)O
*A* Condition not met

*Q* What about this compound? CC[C@H](C)[C@H](NC(=O)[C@H](Cc1ccc(O)cc1)NC(=O)[C@@H]1CCCN1C(=O)[C@@H](N)CCC/N=C(/N)NC(=O)[C@@H](N)CCCCCN)C(=O)N[C@@H](CC(C)C)C(=O)O
*A* Condition met

*Q* What about this compound? CC[C@H](C)[C@H](NC(=O)[C@H](Cc1ccc(O)cc1)NC(=O)[C@@H]1CCCN1C(=O)[C@H](CCCNC(=N)N)NC(=O)[C@@H](N)CCCN1CCN=C1N)C(=O)N[C@@H](CC(C)C)C(=O)O (H-[X9]RPYIL-OH)
*A* Condition not met
